Tested on: LOX IMVI
ASSAY NOTES: NCI tumour cell line growth inhibition, 48 h
Active and inactive are the calls of the source. Cut-off read from the data, not from the text of the source: active = GI50 up to about 1.1 µM and inactive = higher.
// reported GI50 for each item listed
MEASURED PROPERTY: GI50

- COMPOUND: "CCOC(=O)/C(C#N)=C1\\c2c([nH]c(=S)[nH]c2=O)Oc2ccc3ccccc3c21"
  READING: "> 100 µM (inactive)"
- COMPOUND: "O=C(Oc1ccc2c(c1)CN(Cc1ccccc1)CO2)c1ccccc1"
  READING: "17.1 µM (inactive)"
- COMPOUND: "CC1CC2C(=O)NC(=O)C2c2[nH]c3ccccc3c21 (configuration not stated)"
  READING: "> 100 µM (inactive)"
- COMPOUND: "COC(=O)C(CCC1C=CN(S(=O)(=O)c2ccc(C)cc2)C1)/N=C/c1ccccc1 (configuration not stated)"
  READING: "47.4 µM (inactive)"
- COMPOUND: "CC[C@H](C)[C@H]1NC(=O)[C@@H](NC(=O)[C@@H](CC(C)C)N(C)C(=O)C2CCCN2C(=O)[C@H](C)O)[C@@H](C)OC(=O)[C@H](Cc2ccc(OC)cc2)N(C)C(=O)[C@@H]2CCCN2C(=O)[C@H](CCCCNC(=O)OCc2ccccc2)NC(=O)[C@H](C)C(=O)[C@H](C(C)C)OC(=O)C[C@@H]1O (some centres not stated)"
  READING: "7.4 µM (inactive)"
- COMPOUND: "O=C(NCCCCCCNC(=O)OCCSCCn1cc(C(=O)NC(=O)OCc2ccccc2)c(=O)[nH]c1=O)OCCSCCn1cc(C(=O)NC(=O)OCc2ccccc2)c(=O)[nH]c1=O"
  READING: "> 100 µM (inactive)"
- COMPOUND: "CCOC(=O)Nc1ccc2c(c1)N(C(=O)CCN(CC)CC)c1ccccc1S2 [ETHACIZINE]"
  READING: "17.6 µM (inactive)"

----------
As shown below, each of these molecules has a reported GI50 value.
System: HOP-92
ASSAY NOTES: NCI tumour cell line growth inhibition, 48 h
The source made the active and inactive calls. No stated cut-off is given here; in the data, active = GI50 up to about 1.1 µM and inactive = higher.
MEASURED PROPERTY: GI50

- SMILES STRUCTURE: "CNC1=C/C(=N/C2=CC(=N/C(=C\\C#N)C(C)(C)O)/OC2(C)C)OC1(C)C"
  READING: "11.9 µM (inactive)"
- SMILES STRUCTURE: "O=c1cc(/N=N\\c2ccc(Cl)c(Cl)c2)[nH]c(=O)[nH]1"
  READING: "1.59 µM (inactive)"
- SMILES STRUCTURE: "N#C/C(=C/n1c(=S)[nH]c2ccc([N+](=O)[O-])cc21)C(N)=O"
  READING: "> 100 µM (inactive)"
- SMILES STRUCTURE: "CCOP(=O)(OCC)/C(C#N)=C/c1cccn1CC(C)C"
  READING: "> 100 µM (inactive)"
- SMILES STRUCTURE: "CCOC(=O)c1cc2c([nH]1)c(OC(C)=O)cc1c2ccn1Cc1ccccc1"
  READING: "> 100 µM (inactive)"
- SMILES STRUCTURE: "Cn1nnnc1SC(F)(F)c1nc2ccccc2o1"
  READING: "> 100 µM (inactive)"

----------
Test system: HT-29
ASSAY NOTES: NCI tumour cell line growth inhibition, 48 h
The source made the active and inactive calls. No stated cut-off is given here; in the data, active = GI50 up to about 1.1 µM and inactive = higher.
MEASURED PROPERTY: GI50

- MOLECULE: "Cc1cc2c(=O)c3ccccc3oc2c(C#N)c1C"
  READING: "43.6 µM (inactive)"
- MOLECULE: "c1ccc(C2=NC3OC2c2ccccc23)cc1 (stereo not given)"
  READING: "> 10 µM (inactive)"
- MOLECULE: "NC(CCc1nc(-c2ccccc2)cs1)C(=O)O (stereo not given)"
  READING: "> 100 µM (inactive)"
- MOLECULE: "Cc1c(C(=O)OCc2ccccc2)[n+]([O-])c2cc(F)c(F)cc2[n+]1[O-]"
  READING: "2.01 µM (inactive)"
- MOLECULE: "CN(C)Cc1cc(C(=O)/C=C/c2ccc(Cl)cc2)cc(CN(C)C)c1O"
  READING: "5.6 µM (inactive)"
- MOLECULE: "O=C(NC1C=Nc2ccc([N+](=O)[O-])cc2NC1=O)c1cc(Cl)cc([N+](=O)[O-])c1 (stereo not given)"
  READING: "> 100 µM (inactive)"
- MOLECULE: "O=C(O)CCC(=O)Oc1ccc(O)c2c1CCCC2=O"
  READING: "> 100 µM (inactive)"
- MOLECULE: "C/N=C(\\N=c1/ss/c(=N\\C)n1C)N(C)C.[O-][Cl+3]([O-])([O-])O"
  READING: "> 100 µM (inactive)"
- MOLECULE: "O=C1/C(=C/c2cccnc2)SC(=S)N1Cc1ccco1"
  READING: "4.01 µM (inactive)"
- MOLECULE: "OCCOCn1nncc1Cn1ncc2c(SCc3ccccc3)ncnc21"
  READING: "37.7 µM (inactive)"
- MOLECULE: "COC(=O)C1=NC(=S)NC(c2ccccc2)C1c1nc2ccccc2s1 (stereo not given)"
  READING: "> 100 µM (inactive)"
- MOLECULE: "Cc1nc2c3c(ccc2nc1O)C(=O)c1ccccc1C3=O"
  READING: "> 100 µM (inactive)"
- MOLECULE: "Cn1nnnc1SC(F)(F)c1nc2ccccc2o1"
  READING: "> 100 µM (inactive)"
- MOLECULE: "CCOC(=O)CCC1(C(=O)O[C@@H]2C[C@H](C)CC[C@H]2C(C)C)CCCCC1=O (stereo not given in full)"
  READING: "43.3 µM (inactive)"
- MOLECULE: "CCOC(=O)CC(C)C1(C=O)CCCCC1=O (stereo not given)"
  READING: "> 10 µM (inactive)"
- MOLECULE: "C/C(=N\\NC(N)=S)c1ccc(C2CCCCC2)cc1"
  READING: "10.5 µM (inactive)"
- MOLECULE: "COC(=O)/C=C(/C(=O)OC)c1c(C)c(C)c2c(C)cc(C)cc(C)c1-2"
  READING: "11.6 µM (inactive)"
- MOLECULE: "COC(=O)C(CCCCN)NC(C)=O.Cc1ccc(C(=O)Nc2ccc(S(=O)(=O)O)c3cc(S(=O)(=O)O)cc(S(=O)(=O)O)c23)cc1NC(=O)c1cccc(NC(=O)Nc2cccc(C(=O)Nc3cc(C(=O)Nc4ccc(S(=O)(=O)O)c5cc(S(=O)(=O)O)cc(S(=O)(=O)O)c45)ccc3C)c2)c1"
  READING: "> 50 µM (inactive)"
- MOLECULE: "CC(=O)O[C@H]1CCC2[C@@H]3CCC4Nc5[nH]ncc5C[C@]4(C)C3CC[C@@]21C (stereo not given in full)"
  READING: "45.3 µM (inactive)"
- MOLECULE: "COS(C)(=O)=O"
  READING: "> 2 µM (inactive)"
